Tested on: CP315
assay_summary: qHTS profiling for inhibitors of Plasmodium falciparum proliferation (AID 504749); note: nearly all actives have a fitted effect of over 60% in size
settings: P. falciparum in erythrocytes, SYBR Green DNA, 72 h; series mostly up to 28.7 µM
Records with an inconclusive call do not appear. Activity calls are given as the source filed them. Calls come from the whole dose curve; as a rule, active = well fitted inhibition curve with a large enough effect; inconclusive = small, poorly fitted or top-dose-only effect; inactive = flat fitted curve, though single readings scatter.
Labels: active, inactive

1) CC(C)C(Br)C(=O)NC(N)=O (centres undefined)	inactive
2) CCCCCCCCC(=O)NCc1ccc(O)c(OC)c1	inactive
3) CCNc1nc(Cl)nc(NCC)n1	inactive
4) CN(C)C(=S)SSC(=S)N(C)C	active
5) CC(C)(C)OC(=O)c1ncn2c1[C@@H]1CCCN1C(=O)c1c(Br)cccc1-2	inactive
6) CCS(=O)(=O)C(C)(C)S(=O)(=O)CC	inactive
7) CCC(=O)O[C@H]1CC[C@H]2[C@@H]3CCC4=CC(=O)CC[C@]4(C)[C@H]3CC[C@]12C	inactive
8) CCN(CC)C(C)C(=O)c1ccccc1 (centres undefined)	inactive
9) CCC1(c2ccccc2)CCC(=O)NC1=O (centres undefined)	inactive
10) NC(=O)CN1CCCC1=O	inactive
11) Nc1ccc(N)cc1	inactive
12) O=C(O)c1nn(Cc2ccc(Cl)cc2Cl)c2ccccc12	inactive
13) Cc1ccc(N=CN(C)C=Nc2ccc(C)cc2C)c(C)c1	inactive
14) O=C(NC(=O)c1c(F)cccc1F)Nc1cc(Cl)c(OC(F)(F)C(F)C(F)(F)F)cc1Cl (centres undefined)	inactive
15) CCN(CC)CCOC(=O)C(C)(c1ccccc1)c1ccccc1	inactive
16) C[C@]12Cc3nonc3C[C@@H]1CC[C@@H]1[C@@H]2CC[C@@]2(C)[C@H]1CC[C@]2(C)O	inactive
17) CN1C[C@@H](NS(=O)(=O)N(C)C)C[C@@H]2c3cccc4c3c(cn4C)C[C@H]21	inactive
18) CN1C(=O)CN=C(c2ccccc2)c2cc([N+](=O)[O-])ccc21	inactive
19) NC(=O)OCCCc1ccccc1	inactive
20) Oc1ccc2[nH]cc(CCCCN3CC=C(c4ccccc4)CC3)c2c1	active
21) ClC1=C(Cl)C2(Cl)C(CBr)CC1(Cl)C2(Cl)Cl (centres undefined)	inactive
22) CC(Cc1ccccc1)NCc1ccccc1Cl (centres undefined)	inactive
23) OC(O)C(Cl)(Cl)Cl	inactive
24) C[N+]1(CCC(C(N)=O)(c2ccccc2)c2ccccc2)CCCCC1	inactive

* * *

assay_summary: qHTS for Inhibitors of the Functional Ribonucleoprotein Complex (vRNP) of Lymphocytic Choriomeningitis Arenaviruses (LCMV): Viability assay - alamar blue signal for LCMV Primary Screen (AID 1347085); note: nearly all actives have a fitted effect of over 80% in size
settings: alamar blue viability counter-screen, LCMV vRNP screen cells; series mostly up to 57.5 µM
Records with an inconclusive call do not appear. Calls of active or inactive are those of the source. Calls come from the whole dose curve; tested in HEK293 reporter line.
Labels: active, inactive

1) CCN(CC)CCSC(=O)C(c1ccccc1)c1ccccc1	inactive
2) CC(Cc1ccc2c(c1)OCO2)NO (stereo unspecified)	inactive
3) COc1cc(C(=O)OCCCN2CCCN(CCCOC(=O)c3cc(OC)c(OC)c(OC)c3)CC2)cc(OC)c1OC	inactive
4) COc1ccc2c(c1)c(CC(=O)OCC(=O)O)c(C)n2C(=O)c1ccc(Cl)cc1	inactive
5) OCCN1CCN(CCCN2c3ccccc3C=Cc3ccccc32)CC1	inactive
6) O=C(O)COC(=O)Cc1ccccc1Nc1c(Cl)cccc1Cl	inactive
7) C[C@]12CCC(=O)C=C1C=C[C@@H]1[C@@H]2CC[C@@]2(C)[C@H]1CC[C@@]21CCC(=O)O1	inactive
8) CN(C)CCN(Cc1ccc(Cl)cc1)c1ccccn1	inactive
9) NC1(c2ccc(-c3nc4ccn5c(=O)[nH]nc5c4cc3-c3ccccc3)cc2)CCC1	active
10) CN1CCCN=C1/C=C/c1cccs1	inactive
11) Nc1ccc(Cl)cc1C(=O)c1ccccc1F	inactive
12) CC(=O)Oc1ccc2c(c1)CC[C@@H]1[C@@H]2CC[C@]2(C)[C@@H](O)CC[C@@H]12	inactive
13) Cc1cc(N)c2cc(NC(=O)Nc3ccc4nc(C)cc(N)c4c3)ccc2n1	inactive
14) CCN1CCCC(OC(=O)C(c2ccccc2)c2ccccc2)C1 (stereo unspecified)	inactive
15) Fc1ccc(C(c2ccc(F)cc2)N2CCN(C/C=C/c3ccccc3)CC2)cc1	inactive
16) CCC(=O)O[C@]1(C(=O)SCF)[C@H](C)C[C@H]2[C@@H]3C[C@H](F)C4=CC(=O)C=C[C@]4(C)[C@@]3(F)[C@@H](O)C[C@@]21C	inactive
17) CN1C[C@@H](NS(=O)(=O)N(C)C)C[C@@H]2c3cccc4c3c(cn4C)C[C@H]21	inactive
18) CCN1C(=O)c2ccccc2C1Nc1ccc(OCCN2CCCCC2)cc1 (stereo unspecified)	inactive
19) CCCc1nc(C)c2c(=O)[nH]c(-c3cc(S(=O)(=O)N4CCN(CC)CC4)ccc3OCC)nn12	inactive
20) CC1=C(CC(=O)O)c2cc(F)ccc2/C1=C\c1ccc(S(C)(=O)=O)cc1	inactive
21) Oc1ccc(Cl)cc1Sc1cc(Cl)ccc1O	inactive

* * *

assay_summary: qHTS assay for small molecule agonists of the antioxidant response element (ARE) signaling pathway measured by Nrf2-dependant transcriptional activity - cell viability counter screen (AID 720653); note: % is set by controls: 0 for no effect and ±100 for the full control effect
settings: ARE-bla HepG2 viability, CellTiter-Glo ATP luminescence, 16 h; stronger effect = lower value
Source text: National Center for Advancing Translational Sciences [NCATS] NIH Chemical Genomics Center [NCGC] U.S. Environmental Protection Agency [EPA] National Institutes of Environmental Health Sciences [NIEHS] National Toxicology Program [NTP] […] The activation of the report gene under culture conditions can be detected by fluorescence intensity. The cytotoxicity of the compounds against the ARE-bla HepG2 cell line was quantified by measuring the intracellular ATP content. […]
Records with an inconclusive call do not appear. Active and inactive are the calls of the source. Calls come from the whole dose curve; as a rule, active = well fitted cell-killing curve with a large enough effect in the repeat runs; inconclusive = weak or mixed curves; inactive = flat fitted curve, though single readings scatter.
observable: max response

1) COP(=O)(OC)C(O)C(Cl)(Cl)Cl (stereo not given)	-9.64% (inactive)
2) COCC(=O)N(c1c(C)cccc1C)C(C)C(=O)OC (stereo not given)	-4.71% (inactive)
3) CCCCCCCCC(=O)NCc1ccc(O)c(OC)c1	-1.94% (inactive)
4) CN(C)C(=S)SSC(=S)N(C)C	-25.3% (inactive)
5) COP(=S)(OC)Oc1ccc(Sc2ccc(OP(=S)(OC)OC)cc2)cc1	-17.2% (inactive)
6) C[C@H]1C(=O)O[C@@H]2CCN3CC=C(COC(=O)[C@](C)(O)[C@]1(C)O)[C@H]23	-1.85% (inactive)
7) O=C(NC(=O)c1c(F)cccc1F)Nc1cc(Cl)c(OC(F)(F)C(F)C(F)(F)F)cc1Cl (stereo not given)	-21.7% (inactive)
8) CCCCCCCCCCCC[N+](C)(C)CCOc1ccccc1	-6.97% (inactive)
9) CCC(=O)O[C@H]1CC[C@H]2[C@@H]3CCC4=CC(=O)CC[C@]4(C)[C@H]3CC[C@]12C	-2.38% (inactive)
10) CCOP(=S)(OCC)O/N=C(\C#N)c1ccccc1	4.22% (inactive)

* * *

System: WaGa
assay_summary: qHTS assay to identify novel small-molecules to repurpose for Merkel cell carcinoma treatment (AID 1296009); note: nearly all actives have a fitted effect of over 60% in size
settings: MCC and control cell lines, CellTiter-Glo viability, 72 h; series mostly up to 46 µM
Records with an inconclusive call do not appear. Activity calls are given as the source filed them. The call rests on the fitted dose curve; in most records, active means well fitted inhibition curve with a large enough effect; inconclusive means small, poorly fitted or top-dose-only effect; inactive means flat fitted curve, though single readings scatter.
Outcome codes: active, inactive

1) COc1ccc2c3c1O[C@H]1[C@@H](O)C=C[C@H]4[C@@H](C2)N(C)CC[C@@]341	active
2) OC(c1ccccc1)(c1ccccc1)C1CCNCC1	inactive
3) COc1cc(N)c(Cl)cc1C(=O)NC1CN2CCC1CC2 (stereo unspecified)	inactive
4) COP(=O)(OC)OC=C(Cl)Cl	inactive
5) O=C(O)Cc1ccccc1	inactive
6) CCN1CCCC1CNC(=O)C(O)(c1ccccc1)c1ccccc1 (stereo unspecified)	inactive
7) CCCN(CCC)CCc1c[nH]c2ccccc12	inactive
8) Sc1ccccc1Cl	inactive
9) CCC1(c2cccc(O)c2)CCCCN(C)C1 (stereo unspecified)	inactive
10) CCCCC1C(=O)NC(=O)N(C2CCCCC2)C1=O (stereo unspecified)	inactive
11) O=C(N[C@@H]1N=C(c2ccccc2F)c2cccc3c2N(CC3)C1=O)c1cc2ccccc2[nH]1	inactive
12) Cc1cccc(Cc2cnc[nH]2)c1C	inactive
13) CCCCCCCCCCCC[N+](C)(C)CCOc1ccccc1	active
14) O=C(O)CCCCCCNC1c2ccccc2CCc2ccccc21	inactive
15) COc1ccc(OC)c(CC(C)N)c1 (stereo unspecified)	inactive
16) O=C1NCN(c2ccccc2)C12CCN(CCCOc1ccc(F)cc1)CC2	inactive
17) C[N+](C)(C)CCOC(=O)C(O)(c1ccccc1)c1ccccc1	inactive
18) CC(Cc1ccccc1)NCc1ccccc1Cl (stereo unspecified)	inactive
19) C[C@H](N)[C@H](O)c1ccc(O)c(O)c1	inactive
20) CCS(=O)(=O)C(C)(C)S(=O)(=O)CC	inactive
21) CNC(C)Cc1ccccc1OC (stereo unspecified)	inactive
22) Nc1ccc(Cl)cc1C(=O)c1ccccc1F	inactive
23) CN1C(=O)CN=C(c2ccccc2)c2cc([N+](=O)[O-])ccc21	inactive
24) C[C@]12CC[C@H]3[C@@H](CCC4=CC(=O)CC[C@@]43C)[C@@H]1CC[C@@H]2C(=O)O	inactive
25) CCN(CC)CCOC(=O)C(C)(c1ccccc1)c1ccccc1	inactive
26) COc1ccc2[nH]cc(CCN(C(C)C)C(C)C)c2c1	inactive

Where do the numbers come from? From PubChem BioAssay (NCATS).
